The reported numbers originate from ChEMBL document CHEMBL3745601.

- Test system: Mus musculus
- Protocol Text: Antineuropathic pain activity in mouse chronic constriction injury model of neuropathic pain assessed as reversal of reduction in paw withdrawal threshold of ipsilateral hind paw at 3 umol/kg, po dosed on day 7 after sciatic nerve ligation and measured at 1 hrs
- Format: functional
Experimental Endpoint: Emax at 3 µmol/kg
Note to self: number, then unit, no commentary.

Compound Structure: CNC(=O)[C@@]12C[C@@H]1[C@@H](n1cnc3c(NC)nc(-n4cc(-c5ccc(F)c(F)c5)nn4)nc31)[C@H](O)[C@@H]2O
Value Measured: 75.2%
//
Compound Structure: CNC(=O)[C@@]12C[C@@H]1[C@@H](n1cnc3c(NC4CCC4)nc(-n4cc(-c5ccc(Cl)s5)nn4)nc31)[C@H](O)[C@@H]2O
Value Measured: 90.7%
//
Compound Structure: CNC(=O)[C@@]12C[C@@H]1[C@@H](n1cnc3c(NC)nc(-n4cc(-c5cnn(C)c5)nn4)nc31)[C@H](O)[C@@H]2O
Value Measured: 82.5%

Please give Emax at 3 µmol/kg, item by item, for the list that follows.
1. CNC(=O)[C@@]12C[C@@H]1[C@@H](n1cnc3c(NC)nc(-n4cc(-c5cc6ccccc6o5)nn4)nc31)[C@H](O)[C@@H]2O
2. CNC(=O)[C@@]12C[C@@H]1[C@@H](n1cnc3c(NC)nc(-n4cc(-c5ccc(Cl)s5)nn4)nc31)[C@H](O)[C@@H]2O
3. CNC(=O)[C@@]12C[C@@H]1[C@@H](n1cnc3c(NC)nc(-n4cc(-c5cnccn5)nn4)nc31)[C@H](O)[C@@H]2O

### Response
["74%", "66.8%", "76.6%"]

---

For each of the compounds below, state its inhibition.
- Assayed System: Adenosine receptor A1 (Homo sapiens) (UniProt P30542)
- Sequence (P30542 whole entry): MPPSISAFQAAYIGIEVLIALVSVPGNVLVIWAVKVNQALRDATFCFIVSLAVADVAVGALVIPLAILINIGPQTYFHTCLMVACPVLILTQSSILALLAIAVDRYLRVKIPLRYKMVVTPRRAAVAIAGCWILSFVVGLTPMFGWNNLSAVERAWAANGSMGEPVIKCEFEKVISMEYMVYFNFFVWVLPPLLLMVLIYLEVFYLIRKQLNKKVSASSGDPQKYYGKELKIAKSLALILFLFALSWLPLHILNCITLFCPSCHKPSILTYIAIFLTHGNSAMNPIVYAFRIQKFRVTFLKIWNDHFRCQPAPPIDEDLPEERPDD
- Protocol Text: Displacement of [3H]N6-R-phenylisopropyladenosine from human adenosine A1 receptor stably expressed in CHO cell membrane at 10 uM by radioligand binding assay
- Assay type: cell membranes
Give bare numbers, in %.

Please review the following examples before continuing.
Compound Structure: CNC(=O)[C@@]12C[C@@H]1[C@@H](n1cnc3c(NC)nc(-n4cc(-c5cnn(C)c5)nn4)nc31)[C@H](O)[C@@H]2O
inhibition / %: 2
//
Compound Structure: CNC(=O)[C@@]12C[C@@H]1[C@@H](n1cnc3c(NC)nc(-n4cc(-c5cnccn5)nn4)nc31)[C@H](O)[C@@H]2O
inhibition / %: 25
//
Compound Structure: CNC(=O)[C@@]12C[C@@H]1[C@@H](n1cnc3c(NC)nc(-n4cc(-c5ccccn5)nn4)nc31)[C@H](O)[C@@H]2O
inhibition / %: 29
//
Compound Structure: CNC(=O)[C@@]12C[C@@H]1[C@@H](n1cnc3c(NC)nc(-n4cc(-c5ncccn5)nn4)nc31)[C@H](O)[C@@H]2O
inhibition / %: 14
//
Compound Structure: CNC(=O)[C@@]12C[C@@H]1[C@@H](n1cnc3c(NCCc4ccccc4)nc(I)nc31)[C@H](O)[C@@H]2O
inhibition / %: 68

Please give inhibition, item by item, for the list that follows.
1. CNC(=O)[C@@]12C[C@@H]1[C@@H](n1cnc3c(NCCc4ccccc4)nc(N=[N+]=[N-])nc31)[C@H](O)[C@@H]2O
2. CNC(=O)[C@@]12C[C@@H]1[C@@H](n1cnc3c(NC)nc(-n4cc(-c5ccc(Cl)s5)nn4)nc31)[C@H](O)[C@@H]2O
3. CNC(=O)[C@@]12C[C@@H]1[C@@H](n1cnc3c(NC)nc(-n4cc(-c5cc6ccccc6o5)nn4)nc31)[C@H](O)[C@@H]2O

### Response
1. 93
2. 27
3. 12

### Prompt Query (compound): "CNC(=O)[C@@]12C[C@@H]1[C@@H](n1cnc3c(NCCc4ccccc4)nc(-n4cc(-c5ccc(Cl)s5)nn4)nc31)[C@H](O)[C@@H]2O" ; field requested: inhibition
### Response 58

---

- Assayed System: UniProt P29274
- Protocol Text: Displacement of [3H]2-[p(2-carboxyethyl)phenyl-ethylamino]-5'-N-ethylcarboxamido-adenosine from human adenosine A2A receptor stably expressed in HEK293 cell membrane at 10 uM by radioligand binding assay
- Type: cell membranes
Experimental Endpoint: inhibition (%)
Give bare numbers, in %.

Please review the following examples before continuing.
Compound Structure: CCNc1nc(-n2cc(-c3ccc(Cl)s3)nn2)nc2c1ncn2[C@H]1[C@H](O)[C@H](O)[C@]2(C(=O)NC)C[C@H]12
inhibition, %: 32
//
Compound Structure: CNC(=O)[C@@]12C[C@@H]1[C@@H](n1cnc3c(NCCc4ccccc4)nc(I)nc31)[C@H](O)[C@@H]2O
inhibition, %: 42
//
Compound Structure: CNC(=O)[C@@]12C[C@@H]1[C@@H](n1cnc3c(NC)nc(-n4cc(-c5cnccn5)nn4)nc31)[C@H](O)[C@@H]2O
inhibition, %: 8
//
Compound Structure: CCNc1nc(N=[N+]=[N-])nc2c1ncn2[C@H]1[C@H](O)[C@H](O)[C@]2(C(=O)NC)C[C@H]12
inhibition, %: 11
//
Compound Structure: CNC(=O)[C@@]12C[C@@H]1[C@@H](n1cnc3c(NC4CCC4)nc(N=[N+]=[N-])nc31)[C@H](O)[C@@H]2O
inhibition, %: 46

Shift focus to the following entry.
### Prompt Query (molecule): "CNC(=O)[C@@]12C[C@@H]1[C@@H](n1cnc3c(NC)nc(-n4cc(-c5cc6ccccc6o5)nn4)nc31)[C@H](O)[C@@H]2O" ; field requested: inhibition
### Response 40

---

- Assayed System: Adenosine receptor A2a (Homo sapiens, UniProt P29274)
- Sequence (P29274 whole entry): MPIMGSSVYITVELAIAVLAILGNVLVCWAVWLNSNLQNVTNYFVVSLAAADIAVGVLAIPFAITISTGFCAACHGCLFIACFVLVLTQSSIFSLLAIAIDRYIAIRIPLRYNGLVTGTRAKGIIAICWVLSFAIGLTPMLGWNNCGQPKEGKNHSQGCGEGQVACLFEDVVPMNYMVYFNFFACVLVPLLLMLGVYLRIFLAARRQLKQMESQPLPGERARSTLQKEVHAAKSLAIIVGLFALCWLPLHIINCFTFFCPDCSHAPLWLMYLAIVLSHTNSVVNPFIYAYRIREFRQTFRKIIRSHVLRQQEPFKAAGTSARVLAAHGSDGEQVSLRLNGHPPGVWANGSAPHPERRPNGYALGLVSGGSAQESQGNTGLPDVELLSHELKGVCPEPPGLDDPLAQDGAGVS
- Protocol Text: Displacement of [3H]2-[p(2-carboxyethyl)phenyl-ethylamino]-5'-N-ethylcarboxamido-adenosine from human adenosine A2A receptor stably expressed in HEK293 cell membrane at 10 uM by radioligand binding assay
- Assay type: cell membranes
Use 30% as the dividing line for inhibition, with the line itself on the True side and lower values as False.

Solved entries:
Compound Structure: CNC(=O)[C@@]12C[C@@H]1[C@@H](n1cnc3c(NC)nc(-n4cc(-c5ccc(F)c(F)c5)nn4)nc31)[C@H](O)[C@@H]2O
Category: True
//
Compound Structure: CNC(=O)[C@@]12C[C@@H]1[C@@H](n1cnc3c(NC)nc(-n4cc(-c5ccccc5Cl)nn4)nc31)[C@H](O)[C@@H]2O
Category: True
//
Compound Structure: CNC(=O)[C@@]12C[C@@H]1[C@@H](n1cnc3c(NC)nc(-n4cc(-c5ncccn5)nn4)nc31)[C@H](O)[C@@H]2O
Category: False
//
Compound Structure: CNC(=O)[C@@]12C[C@@H]1[C@@H](n1cnc3c(NC)nc(-n4cc(-c5ccc(Br)s5)nn4)nc31)[C@H](O)[C@@H]2O
Category: False
//
Compound Structure: CNC(=O)[C@@]12C[C@@H]1[C@@H](n1cnc3c(NC)nc(-n4cc(-c5ccc(Cl)s5)nn4)nc31)[C@H](O)[C@@H]2O
Category: True

### Prompt Reported inhibition at or above 30%? "CNC(=O)[C@@]12C[C@@H]1[C@@H](n1cnc3c(NC)nc(-n4cc(-c5ccccn5)nn4)nc31)[C@H](O)[C@@H]2O"
### Response False

### Prompt Then "CNC(=O)[C@@]12C[C@@H]1[C@@H](n1cnc3c(NC)nc(-n4cc(-c5ccco5)nn4)nc31)[C@H](O)[C@@H]2O" ?
### Response True

---

- Assayed System: Adenosine receptor A3 (Mus musculus)
- Sequence (Q61618 whole entry): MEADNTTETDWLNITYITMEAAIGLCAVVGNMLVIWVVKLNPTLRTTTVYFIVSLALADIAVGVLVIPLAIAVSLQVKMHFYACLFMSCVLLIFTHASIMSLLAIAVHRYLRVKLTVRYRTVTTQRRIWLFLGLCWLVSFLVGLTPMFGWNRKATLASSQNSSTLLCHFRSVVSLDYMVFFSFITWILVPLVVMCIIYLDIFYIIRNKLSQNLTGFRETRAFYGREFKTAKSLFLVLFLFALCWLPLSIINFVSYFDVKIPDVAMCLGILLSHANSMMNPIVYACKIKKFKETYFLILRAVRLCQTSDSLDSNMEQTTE
Experimental Endpoint: pKi
Answers are plain numbers, as −log10 of the molar value.

### Prompt Query (compound): "CNC(=O)[C@@]12C[C@@H]1[C@@H](n1cnc3c(NC)nc(-n4cc(-c5ncccn5)nn4)nc31)[C@H](O)[C@@H]2O" ; field requested: pKi
### Response 6.48

---

- Assayed System: UniProt P29274
- Protocol Text: Displacement of [3H]2-[p(2-carboxyethyl)phenyl-ethylamino]-5'-N-ethylcarboxamido-adenosine from human adenosine A2A receptor stably expressed in HEK293 cell membrane at 10 uM by radioligand binding assay
- Type: cell membranes
For each of the molecules below, state its inhibition.
Give bare numbers, in %.

Compound Structure: CNC(=O)[C@@]12C[C@@H]1[C@@H](n1cnc3c(NC)nc(-n4cc(-c5ccccc5)nn4)nc31)[C@H](O)[C@@H]2O
Unit Of Measurement: %
Value Measured: 35

Please give inhibition, item by item, for the list that follows.
1. CCNc1nc(I)nc2c1ncn2[C@H]1[C@H](O)[C@H](O)[C@]2(C(=O)NC)C[C@H]12
2. CNC(=O)[C@@]12C[C@@H]1[C@@H](n1cnc3c(NC)nc(-n4cc(-c5cnn(C)c5)nn4)nc31)[C@H](O)[C@@H]2O
3. CNC(=O)[C@@]12C[C@@H]1[C@@H](n1cnc3c(NC)nc(N=[N+]=[N-])nc31)[C@H](O)[C@@H]2O

### Response
11
1
1
